Where do the numbers come from? From ChEMBL document CHEMBL4177722.

# target: Calmodulin-sensitive adenylate cyclase (Bacillus anthracis)
# assay-remarks: Inactivation of Bacillus anthracis edema factor assessed as inactivation rate constant in presence of CaM incubated for 10 to 240 mins by EnzChek pyrophosphate assay
Kinact by entry:
Report as a plain number; the unit min⁻¹ is understood.

Examples with answers:
Nc1cc(O[C@@H]2CCN(C(=O)c3ccc(S(=O)(=O)F)cc3)C2)ccn1 = 0.008
Nc1ncnc2c1ccn2C1CCN(C(=O)c2ccc(S(=O)(=O)F)cc2)CC1 = 0.282
Cc1cc(OC2CCN(Cc3ccc(S(=O)(=O)F)cc3)CC2)cc(N)n1 = 0.02
Cc1nc(N)c2ccn(C3CCN(C(=O)c4ccc(S(=O)(=O)F)cc4)CC3)c2n1 = 0.129
Cc1nc(N)cc(OC2CCN(C(=O)c3ccc(S(=O)(=O)F)cc3)CC2)n1 = 0.112
Nc1cc(OCCCNCc2ccc(S(=O)(=O)F)cc2)ccn1 = 0.063
Cc1nc(N)c2cnn(CCCNC(=O)c3ccc(S(=O)(=O)F)cc3)c2n1 = 0.121
Nc1ncnc2c1ncn2[C@@H]1O[C@H](COC(=O)c2ccc(S(=O)(=O)F)cc2)[C@@H](O)[C@H]1O = 0.015

State the recorded Kinact for this entry: Nc1ncnc2c1ncn2CCCNC(=O)c1ccc(S(=O)(=O)F)cc1
0.012

State the recorded Kinact for this entry: Nc1cc(OC2CN(C(=O)c3ccc(S(=O)(=O)F)cc3)C2)ccn1
0.003

State the recorded Kinact for this entry: Nc1ncnc2c1ncn2CCOC(=O)c1ccc(S(=O)(=O)F)cc1
0.011

State the recorded Kinact for this entry: Cc1nc(N)cc(OCCNC(=O)c2ccc(S(=O)(=O)F)cc2)n1
0.158

State the recorded Kinact for this entry: Nc1cc(OCc2ccc(S(=O)(=O)F)cc2)ccn1
0.198

State the recorded Kinact for this entry: Cc1nc(N)c2cnn(C3CCN(C(=O)c4ccc(S(=O)(=O)F)cc4)CC3)c2n1
0.072

State the recorded Kinact for this entry: Nc1cc(OCCNC(=O)c2ccc(S(=O)(=O)F)cc2)ccn1
0.028

State the recorded Kinact for this entry: Nc1ncnc2c1ncn2C1CCN(C(=O)c2ccc(S(=O)(=O)F)cc2)CC1
0.01

State the recorded Kinact for this entry: Nc1cc(OCCNCc2ccc(S(=O)(=O)F)cc2)ccn1
0.029

State the recorded Kinact for this entry: Cc1nc(N)c2ncn(C3CCN(Cc4ccc(S(=O)(=O)F)cc4)CC3)c2n1
0.028

State the recorded Kinact for this entry: Nc1ncnc2c1cnn2C1CCN(C(=O)c2ccc(S(=O)(=O)F)cc2)CC1
0.26

State the recorded Kinact for this entry: Cc1nc(N)c2ncn(C3CCN(C(=O)c4ccc(S(=O)(=O)F)cc4)CC3)c2n1
0.062
